Source: ChEMBL document CHEMBL4342418

system: T47D; assay: Antiproliferative activity against human T47D cells assessed as reduction in cell viability after 48 hrs by MTT assay; type: functional, cell-based
pIC50: −log10 of the molar value.
readout: pIC50

These solved cases illustrate the format of a correct answer.
COc1cccc2c1C(=O)c1c(O)c3c(c(O)c1C2=O)C[C@@](O)(C(=O)CO)C[C@@H]3O[C@H]1C[C@H](N)[C@H](O)[C@H](C)O1 [DOXORUBICIN] = 5.00 to 6.00
O=C(Cn1cc(CCCO)nn1)N1CCN(c2nc3ccccc3s2)CC1 = 4.32 to 4.48
O=C(Cn1cc(C(O)(c2ccccc2)c2ccccc2)nn1)N1CCN(c2nc3ccccc3s2)CC1 = 3.81 to 4.48
C=C(C)[C@@H]1CC[C@]2(OC(=O)c3cn(Cc4ccc(F)cc4)nn3)CC[C@]3(C)[C@H](CC[C@@H]4[C@@]5(C)CC[C@H](OC(=O)c6cn(Cc7ccc(F)cc7)nn6)C(C)(C)[C@@H]5CC[C@]43C)[C@@H]12 = 7.05 to 7.30
O=C(Cn1cc(CO)nn1)N1CCN(c2nc3ccccc3s2)CC1 = 3.81 to 4.48
O=C(Cn1cc(C(O)c2ccccc2)nn1)N1CCN(c2nc3ccccc3s2)CC1 (configuration not stated) = 3.81 to 4.48

Query pIC50 on T47D for CCOC(=O)c1cn(CC(=O)N2CCN(c3nc4ccccc4s3)CC2)nn1
3.81 to 4.48

----------
test system: ASPC1; test: cells; format: functional, cell-based; settings: Homo sapiens, ASPC1, 48 h
Description: Antiproliferative activity against human Aspc-1 cells assessed as reduction in cell viability after 48 hrs by MTT assay
pIC50: −log10 of the molar value.
readout: pIC50

Cc1ccc2c(c1)/C(=N\O)C(=O)N2Cc1cn(CCCC(=O)NO)nn1 = 6.12 to 6.31

Field request: pIC50 | item: COc1ccc2c(c1)/C(=N\O)C(=O)N2Cc1cn(Cc2ccc(C(=O)NO)cc2)nn1
5.58 to 5.85

----------
test system: K562/Adr; assay: Antiproliferative activity against human K562/ADR cells by MTT assay; format: functional, cell-based
readout: IC50

I have this molecule here, COC(=O)c1ccc(-c2cn(CC(=O)O[C@H]3c4cc5c(cc4[C@@H](c4cc(OC)c(OC)c(OC)c4)[C@H]4C(=O)OC[C@@H]43)OCO5)nn2)cc1 , and I need its recorded IC50.
19.6 to 55.3 µM

----------
tested on: PC-3; assay: Antiproliferative activity against human PC3 cells assessed as reduction in cell viability after 24 hrs by MTT assay; format: functional, cell-based; details: PC-3, 24 h
readout: IC50

C[C@@H]1CC[C@H]2[C@@H](C)C(=O)O[C@@H]3O[C@@]4(C)CC[C@@H]1[C@]32OO4 = 39 to 68.8 µM
COc1cc(-c2ccccc2Cl)cc(-c2nnn(Cc3ccccc3)c2C)n1 = 28.2 µg/mL
COc1ccc(-n2cc(CO[C@H]3O[C@@H]4O[C@@]5(C)CC[C@H]6[C@H](C)CC[C@@H]([C@H]3C)[C@@]46OO5)nn2)cc1 = 4.06 to 89.9 µM

Item C[C@H]1[C@@H](OCc2cn(-c3ccc(O)cc3)nn2)O[C@@H]2O[C@@]3(C)CC[C@H]4[C@H](C)CC[C@@H]1[C@@]24OO3 with PC-3 - IC50?
4.06 to 36.6 µM

What value of IC50 on PC-3 does C[C@H]1[C@@H](OCc2cn(-c3ccc(C#N)cc3)nn2)O[C@@H]2O[C@@]3(C)O[C@]24[C@H]1CC[C@@H](C)[C@@H]4C[C@H]3O have?
4.06 to 89.9 µM

API: value(readout=IC50, system=PC-3) for record CC(=O)c1ccc(-n2cc(CO[C@H]3O[C@@H]4O[C@@]5(C)O[C@]46[C@@H](CC[C@@H](C)[C@@H]6C[C@H]5O)[C@H]3C)nn2)cc1
4.06 to 89.9 µM

I'm curious: which IC50 was measured for C#Cc1cccc(Nc2ncnc3cc(OCCOC)c(OCCOC)cc23)c1 tested on PC-3?
11.6 to 26.9 µM

----------
system: MDA-MB-231; assay: Antiproliferative activity against human MDA-MB-231 cells by SRB assay; assay type: functional
# maps each entry to its GI50

Lab note: need GI50 for Cc1ccc(-c2nn(Cc3cn(Cc4ccccc4F)nn3)c(=O)o2)cc1 on MDA-MB-231, anyone have it?
820 to 2390 nM

Enter reported GI50 observed with MDA-MB-231 for Cc1ccc(-c2nn(Cc3cn(Cc4ccccc4)nn3)c(=O)o2)cc1
820 to 2390 nM

----------
Examples of compounds with documented IC50 follow.
test system: MCF7; experiment: cells; format: functional, cell-based; details: Homo sapiens
Description: Antiproliferative activity against human MCF7 cells by MTT assay

# get_value(readout='IC50', item= CNC(=S)N1N=C(c2nnn(-c3ccc(-n4nnc(C5=NN(C(=S)NC)C(c6ccccc6)C5)c4C)cc3)c2C)CC1c1ccccc1 (stereo not given) )
3.46 µg/mL

Dear colleague, I am looking for the recorded IC50 of the following compound: CC(=O)N1N=C(c2nnn(-c3ccc(-n4nnc(C5=NN(C(C)=O)C(c6ccccc6)C5)c4C)cc3)c2C)CC1c1ccccc1 (stereo not given)
66.8 µg/mL

Consider the compound C[C@H]1[C@@H](OCc2cn(-c3cccc(C(=O)N4CCCCC4)c3)nn2)O[C@@H]2O[C@@]3(C)CC[C@H]4[C@H](C)CC[C@@H]1[C@@]24OO3 and give its measured IC50.
2.5 to 176 µM

Fill blank: measured IC50 of the compound C[C@H]1[C@@H](OCc2cn(-c3ccc(C(=O)N4CCN(c5ccccc5)CC4)cc3)nn2)O[C@@H]2O[C@@]3(C)CC[C@H]4[C@H](C)CC[C@@H]1[C@@]24OO3 is ____.
2.5 to 176 µM

GET /values?readout=IC50&item= Cc1c2ccncc2c(C)c2c1[nH]c1ccccc12 [ELLIPTECINE]
1.7 to 3.5 µM

Quick check: IC50 of CC1CCCCN1C(=O)c1ccc(-n2cc(CO[C@H]3O[C@@H]4O[C@@]5(C)CC[C@H]6[C@H](C)CC[C@@H]([C@H]3C)[C@@]46OO5)nn2)cc1 (stereo not given in full) ?
2.5 to 176 µM

Reported IC50, compound CO[C@H]1C[C@@H]2CC[C@@H](C)[C@@](O)(O2)C(=O)C(=O)N2CCCC[C@H]2C(=O)O[C@H]([C@H](C)C[C@@H]2CC[C@@H](O)[C@H](OC)C2)CC(=O)[C@H](C)/C=C(\C)[C@@H](O)[C@@H](OC)C(=O)[C@H](C)C[C@H](C)/C=C/C=C/C=C/1C [SIROLIMUS] : ____
18.7 to 35.1 µM

Can you look up the measured IC50 of C=CCC1CN2CCC1CC2[C@H](O)c1cc(-c2cn(-c3ccc(O)cc3)nn2)nc2ccc(OC)cc12 (stereo not given in full) for me?
0.53 to 14.6 µM

// lookup IC50 for C[C@H]1[C@@H](OCc2cn(-c3cccc(C(=O)N4CCN(C)CC4)c3)nn2)O[C@@H]2O[C@@]3(C)CC[C@H]4[C@H](C)CC[C@@H]1[C@@]24OO3
2.5 to 176 µM

// returns reported IC50 for input CC1CCCCN1C(=O)c1cccc(-n2cc(CO[C@H]3O[C@@H]4O[C@@]5(C)CC[C@H]6[C@H](C)CC[C@@H]([C@H]3C)[C@@]46OO5)nn2)c1 (stereo not given in full)
2.5 to 176 µM

----------
test system: U-251; experiment: Antiproliferative activity against human U251 cells assessed as reduction in cell viability after 72 hrs by MTT assay; assay type: functional, cell-based; settings: U-251, 72 h
Listing: IC50 of selected molecules

CC(C)=CCC12OC(C)(C)C3CC(C=C4C(=O)c5c(OCc6cn(CCN7CCOCC7)nn6)cccc5OC431)C2=O (configuration not stated) = 0.31 to 3.75 µM

Short answer please: IC50, U-251, entry CC(C)=CCC[C@]1(C)C=Cc2c(O)c3c(c(CC=C(C)C)c2O1)O[C@]12C(=C[C@@H]4C[C@H]1C(C)(C)O[C@@]2(C/C=C(/C)C(=O)O)C4=O)C3=O [GAMBOGIC ACID]
0.29 to 4.67 µM

----------
test system: HeLa; assay: Antiproliferative activity against human HeLa cells assessed as reduction in cell viability after 48 hrs by MTT assay; assay type: functional, cell-based
pIC50: −log10 of the molar value.
readout: pIC50

// lookup pIC50 for CCc1ccc(-n2cc(CNC(=O)C(=O)c3c[nH]c4ccccc34)nn2)cc1
< 4.00

----------
tested on: MCF7; assay: cells; format: functional, cell-based; conditions: Homo sapiens
# key: entry, value: IC50

Consider the reported IC50 for these compounds:
C[C@H]1[C@@H](OCc2cn(-c3cccc(C(=O)N4CCOCC4)c3)nn2)O[C@@H]2O[C@@]3(C)CC[C@H]4[C@H](C)CC[C@@H]1[C@@]24OO3 = 2.5 to 176 µM
CCc1ccc(-c2cn(CCNC3=C(C)C(=O)c4ccccc4C3=O)nn2)cc1 = 8.02 to 26.1 µM
C=CCC1CN2CCC1CC2[C@H](O)c1ccnc2ccc(-c3cn(-c4ccccc4)nn3)cc12 (stereo not given in full) = 0.53 to 14.6 µM
C=CCC1CN2CCC1CC2[C@H](O)c1cc(-c2cn(-c3ccccc3)nn2)nc2ccc(OC)cc12 (stereo not given in full) = 0.53 to 6.4 µM

Kindly review the next compound as well.
Using the record for Cc1c(C(=O)Nc2ccccc2)nnn1-c1ccnc2cc(Cl)ccc12 , report its IC50.
31.7 µM
